src = patent US11713338B2

- Assayed System: integrin α4β7 (RPMI8866 human cells adhering to MAdCAM-1) (Homo sapiens, UniProt P13612+P26010)
- Construct: RMP18866 cells, which express integrin α4β7; host or cells: RPMI8866
- Assay Summary: Integrin α4β7-MAdCAM cell adhesion assay (RPMI8866 cells)
- Type: cell-based
- Test Parameters: RPMI8866 cells adhering to MAdCAM; read-out: RPMI8866 Adhesion α4β7/MAdCAM IC50
Observation Type: IC50 (nM)
Entry rule: numbers only, all in nM.

Exercise: Look up IC50: CC(C)C[C@@H]1NC(=O)c2ccc(-c3ccc(N4CCN(C(=O)c5nccnc5C(=O)N5CCN(c6ccc(-c7ccc8cc7CNC(=O)[C@@H]7CCCN7[C@H](C(=O)NC(C)(C)C)[C@H](C)NC(=O)[C@H]([C@@H](C)O)NC(=O)[C@H](CC(=O)O)NC(=O)[C@H](CC(C)C)NC8=O)cc6)CC5)CC4)cc3)c(c2)CNC(=O)[C@@H]2CCCN2[C@H](C(=O)NC(C)(C)C)[C@H](C)NC(=O)[C@H]([C@@H](C)O)NC(=O)[C@H](CC(=O)O)NC1=O [Compound 467]
Key: 43

---

- Assayed System: integrin α4β1 (RAMOS human cells adhering to VCAM-1) (Homo sapiens, UniProt P05556+P13612)
- Construct: Ramos cells, which express integrin α4β1; host or cells: RAMOS
- Assay Summary: Integrin α4β1-VCAM cell adhesion assay (RAMOS cells)
- Assay type: cell-based
- Test Parameters: ratio of cell adhesion IC50s, Ramos α4β1/VCAM over RPMI8866 α4β7/MAdCAM
Observation Type: Ratio Ramos/RPMI
Format: numeric value only, no unit, no commentary.

CC(C)C[C@@H]1NC(=O)c2ccc(-c3ccc(N4CCN(Cc5cccc(CN6CCN(c7ccc(-c8ccc9cc8CNC(=O)[C@@H]8CCCN8[C@H](C(=O)NC(C)(C)C)[C@H](C)NC(=O)[C@H]([C@@H](C)O)NC(=O)[C@H](CC(=O)O)NC(=O)[C@H](CC(C)C)NC9=O)cc7)CC6)c5)CC4)cc3)c(c2)CNC(=O)[C@@H]2CCCN2[C@H](C(=O)NC(C)(C)C)[C@H](C)NC(=O)[C@H]([C@@H](C)O)NC(=O)[C@H](CC(=O)O)NC1=O | 21

As a next step, examine the compound that follows.
Exercise: Look up Ratio Ramos/RPMI: CC(C)C[C@@H]1NC(=O)c2ccc(-c3ccc(N4CCN(C(=O)CCOCCOCCOCCOCCOCCOCCOCCOCCOCCOCCC(=O)N5CCN(c6ccc(-c7ccc8cc7CNC(=O)[C@@H]7CCCN7[C@H](C(=O)NC(C)(C)C)[C@H](C)NC(=O)[C@H]([C@@H](C)O)NC(=O)[C@H](CC(=O)O)NC(=O)[C@H](CC(C)C)NC8=O)cc6)CC5)CC4)cc3)c(c2)CNC(=O)[C@@H]2CCCN2[C@H](C(=O)NC(C)(C)C)[C@H](C)NC(=O)[C@H]([C@@H](C)O)NC(=O)[C@H](CC(=O)O)NC1=O
Key: 133

---

- Assayed System: recombinant integrin α4β7 (Homo sapiens, UniProt P13612+P26010, DEL724-798)
- Construct: purchased R&D Systems 5397-A3-050
- Sequence (P13612 34-970 limits assumed): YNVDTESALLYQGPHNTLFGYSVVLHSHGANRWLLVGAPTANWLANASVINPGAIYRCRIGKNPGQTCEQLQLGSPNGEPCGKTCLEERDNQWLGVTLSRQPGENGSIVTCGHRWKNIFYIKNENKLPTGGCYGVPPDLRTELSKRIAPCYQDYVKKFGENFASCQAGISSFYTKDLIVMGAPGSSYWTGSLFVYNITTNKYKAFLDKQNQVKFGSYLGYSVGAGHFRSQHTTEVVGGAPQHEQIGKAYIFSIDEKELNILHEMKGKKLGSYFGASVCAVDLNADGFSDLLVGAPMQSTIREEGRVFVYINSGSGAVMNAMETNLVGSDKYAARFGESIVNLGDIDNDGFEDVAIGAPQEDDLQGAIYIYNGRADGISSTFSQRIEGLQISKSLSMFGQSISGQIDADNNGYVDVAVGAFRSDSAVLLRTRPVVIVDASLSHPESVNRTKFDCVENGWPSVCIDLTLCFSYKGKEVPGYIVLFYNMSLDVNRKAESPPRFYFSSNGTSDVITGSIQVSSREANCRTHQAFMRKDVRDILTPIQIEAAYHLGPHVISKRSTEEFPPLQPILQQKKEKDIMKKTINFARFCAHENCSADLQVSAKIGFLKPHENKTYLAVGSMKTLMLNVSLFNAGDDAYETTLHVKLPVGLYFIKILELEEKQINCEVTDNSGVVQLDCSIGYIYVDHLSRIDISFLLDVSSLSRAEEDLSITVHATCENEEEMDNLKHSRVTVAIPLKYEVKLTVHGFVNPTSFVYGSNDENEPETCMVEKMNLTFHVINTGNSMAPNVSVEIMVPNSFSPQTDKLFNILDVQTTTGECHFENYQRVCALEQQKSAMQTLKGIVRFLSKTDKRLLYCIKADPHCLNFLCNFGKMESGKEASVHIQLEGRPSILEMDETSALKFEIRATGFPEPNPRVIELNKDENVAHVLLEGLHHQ
- Sequence (P26010 20-723 limits assumed): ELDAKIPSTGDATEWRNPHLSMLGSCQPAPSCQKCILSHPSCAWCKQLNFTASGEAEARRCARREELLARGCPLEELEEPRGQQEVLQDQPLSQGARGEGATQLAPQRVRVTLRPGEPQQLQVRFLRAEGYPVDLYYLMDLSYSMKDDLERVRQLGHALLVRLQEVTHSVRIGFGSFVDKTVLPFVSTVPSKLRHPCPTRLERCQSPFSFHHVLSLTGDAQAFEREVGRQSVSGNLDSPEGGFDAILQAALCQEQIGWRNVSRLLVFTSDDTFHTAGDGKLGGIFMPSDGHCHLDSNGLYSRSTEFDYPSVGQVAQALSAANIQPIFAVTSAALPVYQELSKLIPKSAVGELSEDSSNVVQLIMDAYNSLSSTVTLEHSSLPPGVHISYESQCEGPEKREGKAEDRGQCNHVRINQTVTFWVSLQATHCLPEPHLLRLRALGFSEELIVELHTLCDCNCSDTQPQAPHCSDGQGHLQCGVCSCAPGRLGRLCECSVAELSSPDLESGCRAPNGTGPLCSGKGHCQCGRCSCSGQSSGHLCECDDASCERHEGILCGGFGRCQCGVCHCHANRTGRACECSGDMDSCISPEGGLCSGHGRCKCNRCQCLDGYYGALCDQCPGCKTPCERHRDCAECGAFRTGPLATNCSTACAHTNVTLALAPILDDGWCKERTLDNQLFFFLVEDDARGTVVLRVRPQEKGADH
- Assay Summary: Integrin α4β7—MAdCAM-1 ELISA competition assay
- Type: binding
- Test Parameters: ratio of a4b1 to a4b7 ELISA IC50
Just a reminder that ties go to not satisfied: only ELISA Assay Ratio b1/b7 strictly below 2 counts as satisfied.

Worked examples, 2 compounds total:
CC(C)C[C@@H]1NC(=O)C[C@H](CCCCN)NC(=O)C2(Cc3ccccc3C2)NC(=O)[C@@H]2CCCN2[C@H](C(=O)NC(C)(C)C)[C@H](C)NC(=O)[C@H]([C@@H](C)O)NC(=O)[C@H](CC(=O)O)NC1=O [Compound 288] | not satisfied
Cc1cccc(C)c1-c1ccc(C[C@@H]2NC(=O)[C@@H]3CCCN3[C@H](C(=O)NC(C)(C)C)[C@H](C)NC(=O)[C@H]([C@@H](C)O)NC(=O)[C@H](CC(=O)O)NC(=O)[C@H](CC(C)C)NC(=O)C[C@H](CCCCN)NC2=O)cc1 [Compound 268] | not satisfied

Exercise: Hello, I'm reviewing records and need to know if ELISA Assay Ratio b1/b7 of CC(C)C[C@@H]1NC(=O)[C@H](CC2CCCCC2)NC(=O)[C@@H]2CCCN2[C@H](C(=O)NC(C)(C)C)[C@H](C)NC(=O)[C@H]([C@@H](C)O)NC(=O)[C@H](CC(=O)O)NC1=O [Compound 7] is below 2. Could you check?
Key: satisfied

Exercise: Hello, I'm reviewing records and need to know if ELISA Assay Ratio b1/b7 of CC(C)C[C@@H]1NC(=O)[C@H](Cc2c[nH]cn2)NC(=O)[C@@H]2CCCN2[C@H](C(=O)NC(C)(C)C)[C@@H](CSc2ccccc2)NC(=O)[C@H](C(C)C)NC(=O)[C@H](CC(=O)O)NC1=O [Compound 2] is below 2. Could you check?
Key: satisfied

Exercise: Hello, I'm reviewing records and need to know if ELISA Assay Ratio b1/b7 of CC(C)C[C@@H]1NC(=O)C[C@H](CCCCN)NC(=O)[C@H](Cc2ccc(O)cc2)NC(=O)[C@@H]2CCCN2[C@H](C(=O)NC(C)(C)C)[C@H](C)NC(=O)[C@H]([C@@H](C)OCc2ccccc2)NC(=O)[C@H](CC(=O)O)NC1=O [Compound 200] is below 2. Could you check?
Key: not satisfied

Exercise: Hello, I'm reviewing records and need to know if ELISA Assay Ratio b1/b7 of CC(C)C[C@@H]1NC(=O)[C@@H]2C[C@@H](O)CN2C(=O)[C@H](Cc2ccc(O)cc2)NC(=O)[C@@H]2CCCN2[C@H](C(=O)NC(C)(C)C)[C@H](C)NC(=O)[C@H]([C@@H](C)O)NC(=O)[C@H](CC(=O)O)NC1=O [Compound 139] is below 2. Could you check?
Key: satisfied

Exercise: Hello, I'm reviewing records and need to know if ELISA Assay Ratio b1/b7 of CC(C)C[C@@H]1NC(=O)c2ccc(-c3ccncc3)c(c2)CNC(=O)[C@H](Cc2ccc(O)cc2)NC(=O)[C@@H]2CCCN2[C@H](C(=O)NC(C)(C)C)[C@H](C)NC(=O)[C@H]([C@@H](C)O)NC(=O)[C@H](CC(=O)O)NC1=O [Compound 337] is below 2. Could you check?
Key: not satisfied

Exercise: Hello, I'm reviewing records and need to know if ELISA Assay Ratio b1/b7 of CC(C)C[C@@H]1NC(=O)[C@H](CCc2ccccc2)NC(=O)[C@@H]2CCCN2[C@H](C(=O)NC(C)(C)C)[C@H](C)NC(=O)[C@H]([C@@H](C)O)NC(=O)[C@H](CC(=O)O)NC1=O [Compound 6] is below 2. Could you check?
Key: satisfied

Exercise: Hello, I'm reviewing records and need to know if ELISA Assay Ratio b1/b7 of CC(C)C[C@@H]1NC(=O)[C@H](Cc2ccc(O)cc2)NC(=O)[C@@H]2CCCN2C(C(=O)NC(C)(C)C)C(CSc2ccccc2)NC(=O)[C@H]([C@@H](C)O)NC(=O)[C@H](CC(=O)O)NC1=O (stereo partly drawn) [Compound 3] is below 2. Could you check?
Key: not satisfied
